Give measured AC26 for each item. Keep answers brief.
tested on: D54 ERlucT glycosylation luciferase reporter, luminescence, 24 h; assay: N-linked glycosylation inhibitors, luciferase reporter, dose response, D54 ERlucT cells, luminescence, cherry-picks (AID 624491);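 further: signal gain reflects blocked N-linked glycosylation of a luciferase reporter; actives raise luciferase signal so AC26 marks activators of the reporter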

COc1ccc2c(c1)C(=O)N1[C@H]3c4cc(OC)ccc4OC[C@@H]3[C@H](c3ccccc3)[C@]1(C)C(=O)N2 ... 197 nM

Batch of 6 compounds: report AC26 for each.
1. COC(=O)Nc1nc(-c2ccccc2)c(C(=O)c2ccc(Cl)cc2)s1
2. COc1cc2c(cc1OC)C(c1cccs1)N(C(=S)NC(C)C)CC2 (configuration not stated)
3. COc1ccc(/C=N/NC(=O)c2cccnc2)cc1COc1ccc(NC(C)=O)cc1
4. COc1cc(OC)c2nc(C)c3c(c2c1)N(c1ccc(O)cc1)CC3
5. Cc1ccc(S(=O)(=O)c2cc3c(=O)n4ccccc4nc3n(CCc3ccccc3)c2=N)cc1
6. CCCCC[C@H](O)/C=C/[C@@H]1[C@@H](C/C=C\CCCC(=O)OC)[C@@H](O)C[C@H]1O

3.16 nM
252 nM
1990 nM
1190 nM
84.5 nM
10.5 nM

Answer for every listed entry: what is its AC26? The entries follow.
1. CCOc1nc(N=C(N)N)nc2c(C)cccc12
2. CC1(C(=O)NCc2cccs2)Cc2c(-c3ccc4c(c3)OCO4)ccnc2O1 (configuration not stated)
3. COc1cc(-c2cc3nc(NCCc4ccncc4)ccn3n2)cc(OC)c1OC
4. COc1ccccc1NS(=O)(=O)c1ccc(-c2cc(C)no2)s1
5. CC(/C=N/NC(=O)c1cc(-c2ccccc2)nc2ccccc12)=C\c1ccco1
6. O=C(Nc1ccccc1)N(CCN1CCOCC1)Cc1ccccc1F
7. Cc1ccc(C(=O)N/C(=C\c2cccs2)C(=O)NCCc2c[nH]c3ccccc23)cc1

1: 2480 nM; 2: 2060 nM; 3: 798 nM; 4: 5830 nM; 5: 2040 nM; 6: 1360 nM; 7: 378 nM

Would you be so kind as to report AC26 for each listed record?
1. Cn1cccc1/C=C1\C(=O)NC(=O)N(Cc2ccccc2)C1=O
2. N=c1c(S(=O)(=O)c2ccc(Cl)cc2)cc2c(=O)n3ccccc3nc2n1CCc1ccccc1
3. Cc1nnc2c3ccccc3c(-c3cccs3)nn12
4. COc1cc(/C=N/NC(=O)c2cc(-c3cccn3C)n[nH]2)cc(OC)c1OC
5. Nc1c(N(CCC2=CCCCC2)C(=O)COc2ccc(F)cc2Cl)c(=O)[nH]c(=O)n1Cc1ccccc1
6. COc1cccc(-c2nn(-c3ccccc3)cc2/C=C\C(=O)c2cccs2)c1
7. O=C1Cc2c([nH]c3ccc([N+](=O)[O-])cc23)-c2ccccc2N1
8. Cc1nn(C(C)(C)C)c(OC(=O)c2ccc3c(c2)OCO3)c1Sc1ccccc1

1. 267 nM
2. 122 nM
3. 3170 nM
4. 1730 nM
5. 1070 nM
6. 1360 nM
7. 318 nM
8. 3070 nM
